We begin with IC50 values for Cannabinoid receptor 2 (Homo sapiens, UniProt P34972), as collected from the published literature.
parameterMeasured: IC50 (nM)

(a) CC(=O)Nc1c(C(C)=O)c(=O)n(C)c2nc(-c3ccc(Cl)cc3Cl)c(-c3ccc(Cl)cc3)cc12
(b) N#Cc1cc(-c2ccc(Cl)cc2)c(-c2ccc(Cl)cc2Cl)nc1-n1nnc2ccccc21
(c) N#Cc1cc(-c2ccc(Cl)cc2)c(-c2ccc(Cl)cc2Cl)nc1-n1ccnc1
(d) CC(C)(C)C(=O)N1CCN(c2nc(-c3ccccc3Cl)c(-c3ccc(Cl)cc3)cc2C#N)CC1
(e) CC(C)(O)C(=O)c1oc2nc(-c3ccccc3Cl)c(-c3ccc(Cl)cc3)cc2c1N
Please order the records by their reported IC50, lowest number first. // ordering of labels required in reply
c, b, d, e, a
(c: 310 nM, b: 465 nM, d: 1100 nM, e: 2100 nM, a: 4100 nM)

* * *

We begin with pIC50 values for UniProt P34972, as collected from the published literature.
pIC50: −log10 of the molar value.
parameterMeasured: pIC50

// known answers, use as guide
* CC(=O)Nc1c(C(C)C)c(=O)n(C)c2nc(-c3ccc(Cl)cc3Cl)c(-c3ccc(Cl)cc3)cc12 | 5.27
* CC(=O)Nc1c(C)c(=O)n(C)c2nc(-c3ccc(Cl)cc3Cl)c(-c3ccc(Cl)cc3)cc12 | 5.82
* CN(C)C(=O)Nc1c(C(=O)C(C)(C)C)oc2nc(-c3ccccc3Cl)c(-c3ccc(Cl)cc3)cc12 | 5.71
* N#Cc1cc(-c2ccc(Cl)cc2)c(-c2ccc(Cl)cc2Cl)nc1Oc1ccc(F)c(F)c1 | 5.39
* CCC1(CC)CC(=O)c2cc(-c3ccc(Cl)cc3)c(-c3ccccc3Cl)nc2O1 | 5.38
* CC(=O)Nc1cc(=O)n(C)c2nc(-c3ccc(Cl)cc3Cl)c(-c3ccc(Cl)cc3)cc12 | 6.42
* C[S+]([O-])Cc1ccc(C(=O)Nc2cccnc2C(=O)NCC2CCOCC2)c2ccccc12 (stereo unspecified) | 5.60
* CC(=O)Nc1c(C(C)=O)c(=O)n(Cc2ccccc2)c2nc(-c3ccc(Cl)cc3Cl)c(-c3ccc(Cl)cc3)cc12 | 5.29
* Cn1cc(-c2nc(-c3ccccc3Cl)c(-c3ccc(Cl)cc3)cc2C#N)cn1 | 5.48
* CN(C)NC(=O)c1cc(-c2ccc(Cl)cc2)c(-c2ccc(Cl)cc2Cl)nc1Oc1ccc(F)c(F)c1 | 5.74

(I) N#Cc1cc(-c2ccc(Cl)cc2)c(-c2ccc(Cl)cc2Cl)nc1Oc1cccc(Cl)c1
(II) CC(C)NC(=O)c1cc(-c2ccc(Cl)cc2)c(-c2ccc(Cl)cc2Cl)nc1Oc1ccc(F)c(F)c1
(III) CC(=O)Nc1c(N(C)C)c(=O)n(C)c2nc(-c3ccc(Cl)cc3Cl)c(-c3ccc(Cl)cc3)cc12
(IV) N#Cc1cc(-c2ccc(Cl)cc2)c(-c2ccc(Cl)cc2Cl)nc1NC(=O)c1ccc(F)c(F)c1
With regard to pIC50, arrange the entries in ascending order, please. // ordering of labels required in reply
I, III, II, IV

(1) CC(=O)Nc1c(C(C)=O)c(=O)n(CC(C)C)c2nc(-c3ccc(Cl)cc3Cl)c(-c3ccc(Cl)cc3)cc12
(2) CC(C)CNc1nc(-c2ccc(Cl)cc2Cl)c(-c2ccc(Cl)cc2)cc1C#N
Looking only at measured pIC50, which entry is lower, 1 or 2 ? Mark your answer with the label of the selected entry.
1

(I) O=C(Nc1cccnc1C(=O)NCC1CCOCC1)c1cccc2c1OCCO2
(II) CC(=O)Nc1c(C(C)=O)c(=O)n(CC2CCCO2)c2nc(-c3ccc(Cl)cc3Cl)c(-c3ccc(Cl)cc3)cc12 (stereo unspecified)
Looking only at measured pIC50, which entry is lower, I or II ? Mark your answer with the label of the selected entry.
I
(I: 5.24, II: 5.85)

* * *

We begin with IC50 values for Cannabinoid receptor 2 (Homo sapiens, UniProt P34972), as collected from the published literature.
parameterMeasured: IC50 (nM)

// known answers, use as guide
- CC1(C)CC(=O)c2cc(-c3ccc(Cl)cc3)c(-c3ccc(Cl)cc3Cl)nc2O1: 1300
- CC(C)(C)C1CC(=O)c2cc(-c3ccc(Cl)cc3)c(-c3ccccc3Cl)nc2O1 (racemic): 3400
- CC(=O)NC1CC2(CCCCC2)Oc2nc(-c3ccccc3Cl)c(-c3ccc(Cl)cc3)cc21 (racemic): 3900
- N#Cc1cc(-c2ccc(Cl)cc2)c(-c2ccc(Cl)cc2Cl)nc1Oc1cc(F)cc(F)c1: 320
- COc1c(NC(C)=O)c2cc(-c3ccc(Cl)cc3)c(-c3ccc(Cl)cc3Cl)nc2n(C)c1=O: 1100
- CC(=O)c1oc2nc(-c3ccc(Cl)cc3Cl)c(-c3ccc(Cl)cc3)cc2c1N: 1000

(P) O=C1CC2(CCS(=O)(=O)CC2)Oc2nc(-c3ccccc3Cl)c(-c3ccc(Cl)cc3)cc21
(Q) CNN(C)C(=O)c1cc(-c2ccc(Cl)cc2)c(-c2ccc(Cl)cc2Cl)nc1Oc1ccc(F)c(F)c1
Which entry has a larger number for IC50, P or Q ? Mark your answer with the label of the selected entry.
P

(A) N#Cc1cc(-c2ccc(Cl)cc2)c(-c2ccc(Cl)cc2Cl)nc1Sc1ccc(F)cc1
(B) CC1(C)CC(N)c2cc(-c3ccc(Cl)cc3)c(-c3ccc(Cl)cc3Cl)nc2O1 (racemic)
(C) CC1(C)CC(=O)c2cc(-c3ccc(Cl)cc3)c(-c3ccccc3Cl)nc2O1
(D) CC(C)Oc1nc(-c2ccc(Cl)cc2Cl)c(-c2ccc(Cl)cc2)cc1C#N
With regard to IC50, arrange the entries in ascending order, please. // ordering of labels required in reply
D, C, A, B
